Sourced from patent US20230105457A1

Kindly supply the reported mean relative fluorescence intensity values for the records listed here.
# System: T1, HLA-A*0201 molecule expressed on human tumor cell line T2 (human)
# T1 construct: surface HLA-A2 read with anti-HLA-A2 antibody BB7.2-PE by FACS; also called HLA-A2
# Measurement Protocol: T2 cell HLA-A2 stabilisation, FACS; peptide at 100 µM

Past entries and their recorded results:
INSERT INTO results (binder, assay_readout, endpoint_result) VALUES
  ('RLSSYLVEI [FOXM1-B]', 'mean relative fluorescence intensity', '47.5 relative (HIV peptide = 100)'),
  ('FMLGEFLKL [BIRC5-B1]', 'mean relative fluorescence intensity', '117 relative (HIV peptide = 100)'),
  ('RVSSYLVPI [FOXM1-H]', 'mean relative fluorescence intensity', '83.8 relative (HIV peptide = 100)'),
  ('FLPFGFILV (also called candidate peptide) [IL13RA2-B]', 'mean relative fluorescence intensity', '128 relative (HIV peptide = 100)'),
  ('LMDLSTTEV [FOXM1-B2]', 'mean relative fluorescence intensity', '105 relative (HIV peptide = 100)');

Record mean relative fluorescence intensity for all entries; do not skip any.
1. WLPFGFILI [IL13RA2-H]
2. LTLGEFLKL [BIRC5-H]
3. GLLGEFLQI [BIRC5-B3]
4. YTLGEFLYI [BIRC5-B2]
5. LMDLSTTPL [FOXM1-H2]

1: 26.5 relative (HIV peptide = 100); 2: 35.6 relative (HIV peptide = 100); 3: 35 relative (HIV peptide = 100); 4: 58 relative (HIV peptide = 100); 5: 77.6 relative (HIV peptide = 100)
